Measured MIC, listed per entry for reference.
- Test system: E. coli ATCC 25922
- test: MIC microdilution, standard strain
- Assay type: cell-based
- conditionInfo: Escherichia coli, ATCC25922; E. coli ATCC 25922, 18 h, 35 °C; read-out: MIC
Just the number plus its unit, please.

[
  {
    "smilesStructure": "Fc1ccccc1-n1nnnc1NCc1ccco1",
    "measValue": "16 µg/mL"
  },
  {
    "smilesStructure": "Cc1ccc(Cl)cc1-n1nnnc1NCc1ccco1",
    "measValue": "128 µg/mL"
  },
  {
    "smilesStructure": "Fc1ccc(-n2nnnc2NCc2ccco2)cc1",
    "measValue": "128 µg/mL"
  }
]

### Prompt // lookup MIC for `Ic1ccc(-n2nnnc2NCc2ccco2)cc1`
### Response 128 µg/mL

---

- Test system: HTB-140
- test: MTT assay 72 h
- Type: cell-based, human
- conditionInfo: HTB-140, MTT 72 h, mean ± SD
endpointLabel: pIC50
# pIC50 is unitless: minus log10 of the molar concentration; print number only

### Prompt Tell me reported pIC50 for N.N.[Cl][Pt][Cl] [cisplatin, reference compound] , tested with HTB-140.
### Response 5.95
